Entries and their MIC values follow.
Test system: Staphylococcus aureus
Assay: Antibacterial activity against methicillin-resistant Staphylococcus aureus DB57964 after 24 hrs by broth microdilution method
Type: functional
Details: DB57964, 24 h

COMPOUND	VALUE_UNIT	MIC
CN[C@H](CC(C)C)C(=O)N[C@H]1C(=O)N[C@@H](CC(N)=O)C(=O)N[C@H]2C(=O)N[C@H]3C(=O)N[C@H](C(=O)N[C@H](C(=O)O)c4cc(O)cc(O)c4-c4cc3ccc4O)[C@H](O)c3ccc(c(Cl)c3)Oc3cc2cc(c3O[C@@H]2O[C@H](CO)[C@@H](O)[C@H](O)[C@H]2O[C@H]2C[C@](C)(N)[C@H](O)[C@H](C)O2)Oc2ccc(cc2Cl)[C@H]1O [VANCOMYCIN]	µg/mL	0.78
COC(=O)[C@H](CCCNC(=N)N)NC(=O)COc1cc(O)c2c(=O)c(OCC(=O)N[C@@H](CCCNC(=N)N)C(=O)OC)c(-c3ccc(OC)cc3)oc2c1CC=C(C)C	µg/mL	3.13

###

Test system: Staphylococcus aureus
Assay: Antibacterial activity against methicillin-sensitive Staphylococcus aureus DM4400R after 24 hrs by broth microdilution method
Format: functional
Label key: yes means MIC under 4 µg/mL; no means MIC of 4 µg/mL or more.

MOL	CATEGORY_LABEL
COc1ccc(-c2oc3c(CC=C(C)C)c(O)cc(O)c3c(=O)c2O)cc1	no
CN[C@H](CC(C)C)C(=O)N[C@H]1C(=O)N[C@@H](CC(N)=O)C(=O)N[C@H]2C(=O)N[C@H]3C(=O)N[C@H](C(=O)N[C@H](C(=O)O)c4cc(O)cc(O)c4-c4cc3ccc4O)[C@H](O)c3ccc(c(Cl)c3)Oc3cc2cc(c3O[C@@H]2O[C@H](CO)[C@@H](O)[C@H](O)[C@H]2O[C@H]2C[C@](C)(N)[C@H](O)[C@H](C)O2)Oc2ccc(cc2Cl)[C@H]1O	yes
COC(=O)[C@H](CCCNC(=N)N)NC(=O)COc1cc(O)c2c(=O)c(OCC(=O)N[C@@H](CCCNC(=N)N)C(=O)OC)c(-c3ccc(OC)cc3)oc2c1CC=C(C)C	yes
N=C(N)NCCCCC(=O)Nc1cc(C(F)(F)F)cc(NC(=O)c2cc(C(=O)Nc3cc(C(F)(F)F)cc(NC(=O)CCCCNC(=N)N)c3O[C@@H]3CCNC3)ncn2)c1O[C@@H]1CCNC1	yes

###

System: Staphylococcus aureus
Assay: Antibacterial activity against methicillin-sensitive Staphylococcus aureus ATCC 29213 after 24 hrs by broth microdilution method
Type: functional
Conditions: ATCC 29213, 24 h
The molecules listed here are annotated with their MIC.
OUTCOME_MEASURE: MIC (µg/mL)

MOL	VALUE_UNIT	NUMERIC_READOUT
COC(=O)[C@H](CCCNC(=N)N)NC(=O)COc1cc(O)c2c(=O)c(OCC(=O)N[C@@H](CCCNC(=N)N)C(=O)OC)c(-c3ccc(OC)cc3)oc2c1CC=C(C)C	µg/mL	3.13
CN[C@H](CC(C)C)C(=O)N[C@H]1C(=O)N[C@@H](CC(N)=O)C(=O)N[C@H]2C(=O)N[C@H]3C(=O)N[C@H](C(=O)N[C@H](C(=O)O)c4cc(O)cc(O)c4-c4cc3ccc4O)[C@H](O)c3ccc(c(Cl)c3)Oc3cc2cc(c3O[C@@H]2O[C@H](CO)[C@@H](O)[C@H](O)[C@H]2O[C@H]2C[C@](C)(N)[C@H](O)[C@H](C)O2)Oc2ccc(cc2Cl)[C@H]1O	µg/mL	1.56
CC(C)(C)c1cc(C(C)(C)C)c2[nH]c(C(C)(C)C)c(C[C@H](NC(=O)[C@@H](N)CCCNC(=N)N)C(=O)N[C@@H](CCCNC(=N)N)C(=O)NCCc3ccccc3)c2c1	µg/mL	4
COc1ccc(-c2oc3c(CC=C(C)C)c(O)cc(O)c3c(=O)c2O)cc1	µg/mL	50
N=C(N)NCCCCC(=O)Nc1cc(C(F)(F)F)cc(NC(=O)c2cc(C(=O)Nc3cc(C(F)(F)F)cc(NC(=O)CCCCNC(=N)N)c3O[C@@H]3CCNC3)ncn2)c1O[C@@H]1CCNC1	µg/mL	1

###

Catalogue of MIC values
System: Staphylococcus aureus
Assay: Antibacterial activity against methicillin-resistant Staphylococcus aureus BAA-38 after 24 hrs by broth microdilution method
Type: functional
Conditions: BAA-38, 24 h

MOL	VALUE_UNIT	MIC
COc1ccc(-c2oc3c(CC=C(C)C)c(O)cc(O)c3c(=O)c2O)cc1	µg/mL	50
CC(C)(C)c1cc(C(C)(C)C)c2[nH]c(C(C)(C)C)c(C[C@H](NC(=O)[C@@H](N)CCCNC(=N)N)C(=O)N[C@@H](CCCNC(=N)N)C(=O)NCCc3ccccc3)c2c1	µg/mL	4
N=C(N)NCCCCC(=O)Nc1cc(C(F)(F)F)cc(NC(=O)c2cc(C(=O)Nc3cc(C(F)(F)F)cc(NC(=O)CCCCNC(=N)N)c3O[C@@H]3CCNC3)ncn2)c1O[C@@H]1CCNC1	µg/mL	1
COC(=O)[C@H](CCCNC(=N)N)NC(=O)COc1cc(O)c2c(=O)c(OCC(=O)N[C@@H](CCCNC(=N)N)C(=O)OC)c(-c3ccc(OC)cc3)oc2c1CC=C(C)C	µg/mL	3.13
CN[C@H](CC(C)C)C(=O)N[C@H]1C(=O)N[C@@H](CC(N)=O)C(=O)N[C@H]2C(=O)N[C@H]3C(=O)N[C@H](C(=O)N[C@H](C(=O)O)c4cc(O)cc(O)c4-c4cc3ccc4O)[C@H](O)c3ccc(c(Cl)c3)Oc3cc2cc(c3O[C@@H]2O[C@H](CO)[C@@H](O)[C@H](O)[C@H]2O[C@H]2C[C@](C)(N)[C@H](O)[C@H](C)O2)Oc2ccc(cc2Cl)[C@H]1O	µg/mL	1.56

###

MIC overview
Test system: Staphylococcus aureus
Experiment: Antibacterial activity against methicillin-resistant Staphylococcus aureus DM 21455 after 24 hrs by broth microdilution method
Type: functional
Conditions: DM 21455, 24 h

MOL	TARGET_ENTITY	MIC
COC(=O)[C@H](CCCNC(=N)N)NC(=O)[C@H](CCCNC(=N)N)NC(=O)COc1cc(O)c2c(=O)c(OCC(=O)N[C@@H](CCCNC(=N)N)C(=O)N[C@@H](CCCNC(=N)N)C(=O)OC)c(-c3ccc(OC)cc3)oc2c1CC=C(C)C	Staphylococcus aureus	11 µM
CCN(CC)CCOc1cc(O)c2c(=O)c(OCCN(CC)CC)c(-c3ccc(OC)cc3)oc2c1CC=C(C)C	Staphylococcus aureus	50 µg/mL
COC(=O)[C@H](Cc1cnc[nH]1)NC(=O)COc1cc(O)c2c(=O)c(OCC(=O)N[C@@H](Cc3cnc[nH]3)C(=O)OC)c(-c3ccc(OC)cc3)oc2c1CC=C(C)C	Staphylococcus aureus	> 63.5 µM
CCN(CC)CCCCCCCCOc1cc(O)c2c(=O)c(OCCCCCCCCN(CC)CC)c(-c3ccc(OC)cc3)oc2c1CC=C(C)C	Staphylococcus aureus	> 50 µg/mL

###

System: Staphylococcus aureus
Experiment: Antibacterial activity against methicillin-resistant Staphylococcus aureus DM 21455 after 24 hrs by broth microdilution method
Format: functional
Conditions: DM 21455, 24 h
OUTCOME_MEASURE: MIC (µM)

MOL	NUMERIC_READOUT
COc1ccc(-c2oc3c(CC=C(C)C)c(OCCBr)cc(O)c3c(=O)c2OCCBr)cc1	5
COC(=O)[C@H](CCCNC(=N)N)NC(=O)COc1cc(O)c2c(=O)c(O)c(-c3ccc(OC)cc3)oc2c1CC=C(C)C	10.4
COc1ccc(-c2oc3c(CC=C(C)C)c(OCC(=O)N[C@@H](CCCNC(=N)N)C(=O)OC(C)(C)C)cc(O)c3c(=O)c2OCC(=O)N[C@@H](CCCNC(=N)N)C(=O)OC(C)(C)C)cc1	6.8
COC(=O)[C@H](CCCCN)NC(=O)COc1cc(O)c2c(=O)c(OCC(=O)N[C@@H](CCCCN)C(=O)OC)c(-c3ccc(OC)cc3)oc2c1CC=C(C)C	32.5

###

Parameter MIC: see the listing below.
System: Staphylococcus aureus
Test: Antibacterial activity against methicillin-sensitive Staphylococcus aureus DM4583R after 24 hrs by broth microdilution method
Format: functional

COMPOUND	VALUE_UNIT	MIC
COC(=O)[C@H](CCCNC(=N)N)NC(=O)COc1cc(O)c2c(=O)c(OCC(=O)N[C@@H](CCCNC(=N)N)C(=O)OC)c(-c3ccc(OC)cc3)oc2c1CC=C(C)C	µg/mL	1.56
CN[C@H](CC(C)C)C(=O)N[C@H]1C(=O)N[C@@H](CC(N)=O)C(=O)N[C@H]2C(=O)N[C@H]3C(=O)N[C@H](C(=O)N[C@H](C(=O)O)c4cc(O)cc(O)c4-c4cc3ccc4O)[C@H](O)c3ccc(c(Cl)c3)Oc3cc2cc(c3O[C@@H]2O[C@H](CO)[C@@H](O)[C@H](O)[C@H]2O[C@H]2C[C@](C)(N)[C@H](O)[C@H](C)O2)Oc2ccc(cc2Cl)[C@H]1O [VANCOMYCIN]	µg/mL	1.56
N=C(N)NCCCCC(=O)Nc1cc(C(F)(F)F)cc(NC(=O)c2cc(C(=O)Nc3cc(C(F)(F)F)cc(NC(=O)CCCCNC(=N)N)c3O[C@@H]3CCNC3)ncn2)c1O[C@@H]1CCNC1 [BRILACIDIN]	µg/mL	1
CC(C)(C)c1cc(C(C)(C)C)c2[nH]c(C(C)(C)C)c(C[C@H](NC(=O)[C@@H](N)CCCNC(=N)N)C(=O)N[C@@H](CCCNC(=N)N)C(=O)NCCc3ccccc3)c2c1 [LTX-109]	µg/mL	4
COc1ccc(-c2oc3c(CC=C(C)C)c(O)cc(O)c3c(=O)c2O)cc1 [ICARITIN]	µg/mL	50

Provenance of the data: ChEMBL document CHEMBL4011638
